Assay: qHTS assay to identify small molecule antagonists of the sonic hedgehog signaling (Shh) pathway (AID 1259369); also: nearly all actives have a fitted effect of over 45% in size
Settings: NIH/3T3 Gli1-Luc reporter, Shh antagonist, luminescence 24 h; series mostly up to 92.4 µM
Description: U.S. Tox21 Program National Center for Advancing Translational Sciences [NCATS] NIH Chemical Genomics Center [NCGC] U.S. Environmental Protection Agency [EPA] National Institutes of Environmental Health Sciences [NIEHS] National Toxicology Program [NTP] U.S. Food and Drug Administration [FDA] Tox21 Assay Overview: The sonic hedgehog (Shh) pathway is essential for normal embryonic development. Dysregulation of the Shh pathway can cause severe developmental defects in organs. […]
Inconclusive results are not listed. Activity calls are given as the source filed them. Calls follow the shape of the full dose curve.
Outcome codes: 1 = active, 0 = inactive

molecule | answer.label
O=C1CCc2ccc(OCCCCN3CCN(c4cccc(Cl)c4Cl)CC3)cc2N1 | 1
CC(N=C(NC#N)Nc1ccncc1)C(C)(C)C (stereo not given) | 0
c1ccsc1 | 0
NC(=S)NC(N)=S | 0
Cc1cccc2cccnc12 | 0
O=C(c1ccc(O)c(O)c1)c1ccc(O)cc1O | 1
CCCCC(CC)CN1CN(CC(CC)CCCC)CC(C)(N)C1 (stereo not given) | 0
Cc1c(C)c2c(c(C)c1OC(=O)c1cccnc1)CC[C@@](C)(CCC[C@H](C)CCC[C@H](C)CCCC(C)C)O2 | 0
CCCCCCCCCCCCOC(=O)c1ccc(O)cc1 | 0
CCCCCCCC | 0
Cc1cc(=O)oc2cc(O)cc(O)c12 | 1
OC1CCC(C2CCCCC2)CC1 (stereo not given) | 0
CCC(CC)C(C)CCOC(C)=O (stereo not given) | 0
Cc1ccc(O)c(N)c1 | 1
CC(C)=CCNc1ncnc2c1ncn2[C@@H]1O[C@H](CO)[C@@H](O)[C@H]1O | 1
CCCCNS(=O)(=O)c1ccc(C)cc1 | 0
O=C(O)Cc1ccc2c(c1)C(=O)c1ccccc1CO2 | 0
Cc1ccc(C)cc1 | 0
CCOC(=O)c1ccc(C2CCC(NC[C@H](O)COc3ccc(O)c(NS(C)(=O)=O)c3)CC2)cc1 (stereo not given in full) | 1
C#C[C@]1(OC(C)=O)CC[C@H]2[C@@H]3CCC4=C/C(=N/O)CC[C@@H]4[C@H]3CC[C@@]21CC | 0
O=S(=O)(O)c1ccccc1/C=C/c1ccc(-c2ccc(/C=C/c3ccccc3S(=O)(=O)O)cc2)cc1 | 0
[Cu+] | 0
O=C(Oc1ccccc1)Oc1ccccc1 | 0
C=C(C)c1cccc(C(=C)C)c1 | 0
Cc1c2ccccc2c(C)c2c1ccc1ccccc12 | 1
OC12N=C(c3ccccc3)SC1Cc1cc(Cl)ccc12 (stereo not given) | 0
O=C(O)c1ccc2cc(C(=O)O)ccc2c1 | 0
C=Cc1cccc(C)c1 | 0
CCCC(=O)OCCc1ccccc1 | 0
CCCCOC(=O)CO | 0
CC(C)(C)C1CCC(=O)CC1 | 1
O=C1CCCCCCCCCCCCCCCO1 | 0
O=C(Nc1ccc2c(O)c(N=Nc3ccc(N=Nc4ccc(S(=O)(=O)O)cc4)cc3)c(S(=O)(=O)O)cc2c1)c1ccccc1 | 0
CCOC(=O)NNc1ccc(N(CC)CC(C)O)nn1 (stereo not given) | 0
C=CC(C)(CCC=C(C)C)OC=O (stereo not given) | 0
CCCCCC/C=C\CCCCCCCC(=O)O | 0
COc1ccc2cc1Oc1ccc(cc1)C[C@H]1c3c(cc4c(c3Oc3cc5c(cc3OC)CCN(C)[C@@H]5C2)OCO4)CCN1C | 1
COc1ccc2c(c1)c(CC(=O)OC/C=C(\C)CC/C=C(\C)CCC=C(C)C)c(C)n2C(=O)c1ccc(Cl)cc1 | 0
Cc1cc(C(C)(C)C)c(O)c(C)c1Cn1c(=O)n(Cc2c(C)cc(C(C)(C)C)c(O)c2C)c(=O)n(Cc2c(C)cc(C(C)(C)C)c(O)c2C)c1=O | 0
CCCCCCCCCCCCOCCOCCOCCOCCOCCOCCOCCOCCOCCO | 1
O=[N+]([O-])c1ccc(F)c(Cl)c1 | 0
CCCCC(CC)COC(=O)CCCCC(=O)OCc1ccccc1 (stereo not given) | 0
O=C1OC2(c3ccc(O)cc3Oc3cc(O)ccc32)c2ccc(N=C=S)cc21 | 0
CC1=CCC(=C(C)C)CC1 | 0
O=C(O)c1cccc(C(F)(F)F)c1 | 0
